// provenance: PubChem BioAssay

Parameter: viability decrease. Scope: all listed entries.
- Method: growth inhibition of GSK3B-pretreated HCT116 cells – cell-based, CellTiter-Glo, 0.2 to 20 µM (AID 1117336)
- Experimental Setup: HCT116 viability after GSK3B inhibitor, at 20 µM, hits give high values
Activity calls are given as the source filed them.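 How the source made its calls: active means compounds lowering colon cancer cell viability after pretreatment blocking the GSK3B kinase; inactive means the rest.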

Some compounds with recorded viability decrease:
>>> print(df.to_string())
                                   compound       quantity_name     reported_value
0  CCCCN(CCN(CCCC)C(=O)N1CCOCC1)C(=O)N1CCOCC1  viability decrease  -64.8% (inactive)
1            CC(=O)N1C[C@H](O)C[C@H]1C(=O)O  viability decrease   -2.7% (inactive)
2  O=C(C1CCCCC1)N1CC(=O)N2CCCc3ccccc3C2C1 (centres undefined)  viability decrease    6.6% (inactive)

Now consider a different compound.
Looking for the measured viability decrease of `CC/C=C(\C(=O)N[C@@H]1C(=O)N2C(C(=O)OCOC(=O)C(C)(C)C)=C(COC(N)=O)CS[C@H]12)c1csc(N)n1` , can you help?
-5.5% (inactive)
